MIC values, listed per item
Test system: Staphylococcus aureus
Assay: Antibacterial activity against methicillin-resistant Staphylococcus aureus 10-11 after 18 to 24 hrs by NCCLS method
Type: functional
Please state the figure in µg/mL; there is no need to write the unit.

COc1cc(CN2CCN(c3cc4c(cc3F)c(=O)c(C(=O)O)cn4C3CC3)CC2)c([N+](=O)[O-])cc1OC ... 64
O=C(O)c1cn(C2CC2)c2cc(N3CCN(Cc4ccc(OCc5ccccc5)cc4)CC3)c(F)cc2c1=O ... 32
COc1ccc(CN2CCN(c3cc4c(cc3F)c(=O)c(C(=O)O)cn4C3CC3)CC2)c(OC)c1OC ... 16
O=C(O)c1cn(C2CC2)c2cc(N3CCN(Cc4ccc5c(c4)OCCO5)CC3)c(F)cc2c1=O ... 16
COc1ccc(CN2CCN(c3cc4c(cc3F)c(=O)c(C(=O)O)cn4C3CC3)CC2)cc1 ... 16
COc1ccc(OC)c(CN2CCN(c3cc4c(cc3F)c(=O)c(C(=O)O)cn4C3CC3)CC2)c1 ... 32
COc1cc(CN2CCN(c3cc4c(cc3F)c(=O)c(C(=O)O)cn4C3CC3)CC2)cc(OC)c1OC ... 64

Write down MIC measured for item COc1ccc(CN2CCN(c3cc4c(cc3F)c(=O)c(C(=O)O)cn4C3CC3)CC2)cc1OC
32
